Test system: NCI/ADR-RES ovarian
Assay: NCI tumour cell line growth inhibition, 48 h; in the data active = GI50 below about 0.43 µM; inactive = the rest
Parameter call: string, one of active, inactive

Look over these answered cases.
Problem: Could you kindly confirm the outcome this assay logged for `CN(C)c1ccc(/C=N/Nc2ccc(-c3nc4ccccc4[nH]3)cc2)cc1` ?
Result: inactive

Problem: Write down the call the test reported for this molecule. Item: `Cn1cc(/C=C2\C(=O)Nc3cccnc32)c2ccccc21`
Result: inactive

Problem: How did this test come out for `ClCc1ccc(Cn2cnc3ncnc(Cl)c32)cc1` ?
Result: inactive

Kindly consider the entry below.
Problem: What classification did CCn1cc(C2NC(=O)c3cc(F)ccc3N2)c2cccc(Cl)c21 (centres undefined) end up with in this test?
Result: active

====

Test system: HL-60(TB) leukemia
Experiment: NCI tumour cell line growth inhibition, 48 h
readout name: log10 TGI (log10 of the value in µM)
Plainly stated, the numbers are log10 of TGI given in µM.

Study these solved cases before continuing.
Tested system HL-60(TB) leukemia; log10 TGI recorded for `COc1cc(C(=O)c2c(-c3ccccc3)oc3ccccc23)cc(OC)c1O` was 0.59

Reported log10 TGI (HL-60(TB) leukemia) for entry COC(=O)C[C@H]1[C@]2(C)C3=C(C)[C@H](c4ccoc4)CC3O[C@@H]2[C@@H]2OC(=O)[C@]3(C)CCC(=O)[C@@]1(C)[C@@H]23 (stereo not given in full) is 1.74

The reported HL-60(TB) leukemia log10 TGI of `COc1cc(C=NCC(=O)CSC(c2ccccc2)c2ccccc2)cc(OC)c1OC` is 1.43

Observed log10 TGI on HL-60(TB) leukemia, entry Clc1cccc(C2SCc3nc4ccccc4n32)c1Cl (stereo not given) , equals 1.31

Field log10 TGI (HL-60(TB) leukemia), entry `Cc1ccc(N=Nc2cc(=O)[nH]c(=O)[nH]2)cc1C` : 0.86

Form field log10 TGI for item CCCCCCCCCCCOCCC1C(C(C)OCCN2CCCC2)OC2OC(C)(C)OC21 (stereo not given) on HL-60(TB) leukemia: 0.53

Continuing:
Entry `N#CC(C#N)=C/C=C/c1cccc([N+](=O)[O-])c1` under HL-60(TB) leukemia had log10 TGI of 0.73

The measured log10 TGI that Clc1cccc(Cl)c1C1ON=C(c2ccccc2)N1C12CC3CC(CC(C3)C1)C2 (stereo not given) showed for HL-60(TB) leukemia is 0.94

====

System: U251 CNS
Test: NCI tumour cell line growth inhibition, 48 h
readout name: TGI

Solved cases (6 shown):
Entry O=C(NC(Cc1c[nH]c2ccccc12)C(=O)O)/C(=C/c1ccccc1)NC(=O)c1ccccc1 (stereo unspecified) : TGI on U251 CNS = > 100 µM

Case OCC(CO)CC1COc2ccccc2O1 (stereo unspecified) , U251 CNS, TGI recorded as > 10 µM

Note to self: TGI of `C=C(C)[C@@H]1CC[C@]2(C#N)CC[C@]3(C)[C@H](CC[C@@H]4[C@@]5(C)CCCNC(C)(C)[C@@H]5CC[C@]43C)[C@@H]12` with U251 CNS was 3.13 µM

I looked up `CN(C)c1ccc(/C=N/Nc2ccc(-c3nc4ccccc4[nH]3)cc2)cc1` and its TGI for U251 CNS was 21.5 µM

// TGI (U251 CNS) for O=C(O)C(O)C(O)C1[O][Sb][O]C1CO (stereo unspecified) = > 100 µM

Short answer on U251 CNS for `CN(C)CCCN1C(=O)N(CCCN(C)C)c2c3cc(O)ccc3nc3c([N+](=O)[O-])ccc1c23` , TGI: 30.2 µM

Further cases:
Entry `CC1=CC(=O)c2[nH]c3ccccc3c2C1=O` ; assay system U251 CNS; TGI recorded at > 25 µM

Param item: `COc1ccc(C2=C(N)c3ccccc3C2=O)cc1` ; param system: U251 CNS; output TGI: > 100 µM

Entry `C#Cc1ccccc1C(=O)OC` ; assay system U251 CNS; TGI recorded at > 100 µM

Value sought: TGI, system U251 CNS, item `COc1ccc2c(c1)[n+]([O-])c(-c1ccc(Cl)c(Cl)c1)c(N)[n+]2[O-]` . Result: > 100 µM

Tested on U251 CNS: `CC(C)c1cc2c(O)c(c1)Cc1cc(C(C)C)cc(c1O)Cc1cc(C(C)C)cc(c1O)Cc1cc(C(C)C)cc(c1O)Cc1cc(C(C)C)cc(c1O)Cc1cc(C(C)C)cc(c1O)C2` . Observed TGI: > 100 µM

====

Listed here: items and their measured GI50.
Test system: T-47D breast
Experiment: NCI tumour cell line growth inhibition, 48 h

Solved cases (3 shown):
Param item: `C[C@@H]1CC[C@H]2C(CN3CCN(CC4=C(C(F)(F)F)O[C@@H]5O[C@@]6(C)CC[C@H]7[C@H](C)CC[C@@H]4[C@@]57OO6)CC3)=C(C(F)(F)F)O[C@@H]3O[C@@]4(C)CC[C@@H]1[C@]32OO4` ; param system: T-47D breast; output GI50: 0.458 µM

Log: T-47D breast, molecule `CCn1c(-c2cc3ccccc3cc2OC(=O)c2ccccc2)n[nH]c1=S` , GI50 = 38.3 µM

Summary: `Cc1cc(I)cc(CN(C)CCCCN2CCCC2)c1O` , T-47D breast, GI50 = 15.7 µM

Okay, next one:
The measured GI50 that `C=C1C(=O)O[C@H]2[C@H](OC(C)=O)[C@@H](C)CCC/C(C)=C/CC[C@]3(CO3)[C@H](O)C[C@@H]12` showed for T-47D breast is 2.8 µM

====

Tested on: OVCAR-3 ovarian
Experiment: NCI tumour cell line growth inhibition, 48 h; in the data active = GI50 below about 0.43 µM; inactive = the rest
The reply should be one of these categories: yes (active), no (inactive)

Reference set, count: 5
Problem: // param item: `C[C@@H]1CC[C@H]2C(CN3CCN(CC4=C(C(F)(F)F)O[C@@H]5O[C@@]6(C)CC[C@H]7[C@H](C)CC[C@@H]4[C@@]57OO6)CC3)=C(C(F)(F)F)O[C@@H]3O[C@@]4(C)CC[C@@H]1[C@]32OO4` ; yields the recorded call
Result: no

Problem: Could you please tell me the result logged for CCn1cc(C2NC(=O)c3cc(F)ccc3N2)c2cccc(Cl)c21 (centres undefined) in this assay?
Result: yes

Problem: Given `ClCc1ccc(Cn2cnc3ncnc(Cl)c32)cc1` , state the outcome it received in this test.
Result: no

Problem: Each molecule tested received a call. Report the one for `Fc1cc(Nc2ccc3c(OCCCN4CCOCC4)cccc3n2)ccc1Cl` .
Result: no

Problem: Field: outcome | Entry: `Cc1cc(I)cc(CN(C)CCCCN2CCCC2)c1O`
Result: no

# input for lookup
Problem: Recorded call for `CN1C=CN(Cc2ccc(-c3ccccn3)nc2)[CH-]1.CN1C=CN(Cc2ccc(-c3ccccn3)nc2)[CH-]1.[Au+3]` ?
Result: no

====

System: MCF7 breast
Assay: NCI tumour cell line growth inhibition, 48 h
readout name: GI50

Measured GI50, `Nc1ccccc1C#Cc1ccccc1C#CCCCCO` : 60.8 µM

molecule `O=C(/C=C/c1cccs1)Nc1ncc(Cc2ccccc2F)s1` , GI50 observed: 0.318 µM

Record `COCCn1cc(-c2csc(-c3c[nH]c4ccc(F)cc34)n2)c2cccnc21` , field GI50: 2.09 µM

Next:
Field GI50 (entry `COc1cc(C=NCC(=O)CSC(c2ccccc2)c2ccccc2)cc(OC)c1OC` ) reads 19.8 µM

// `CN(C)c1ccc(/C=N/Nc2ccc(-c3nc4ccccc4[nH]3)cc2)cc1` : GI50 value = 8.44 µM

Lab book: GI50 of CC(Cl)CC(=O)Nc1ccc2c(c1)oc(=O)c1cc(NC(=O)CC(C)Cl)ccc12 (stereo unspecified) noted as 7.9 µM

The value of GI50 measured for the molecule `O=C(Nc1ccc(-c2nc3ccc(NC(=O)c4ccc(Cl)cc4)cc3[nH]2)cc1)c1ccc(Cl)cc1` turned out to be 1.23 µM

====

Test system: HOP-92 NSCLC
Test: NCI tumour cell line growth inhibition, 48 h
readout name: TGI

Short answer on HOP-92 NSCLC for `COc1cc(C(=O)c2c(-c3ccccc3)oc3ccccc23)cc(OC)c1O` , TGI: 12.7 µM

Noted TGI for `Cn1c(=O)c2[nH]cnc2n(C)c1=O` , tested on HOP-92 NSCLC: > 100 µM

TGI of `CCCC/C(C)=N/NC(N)=S` , assay on HOP-92 NSCLC, is > 100 µM

Cc1ccc(NC(=O)CCC(=O)C(C#N)c2ccc(Cl)cc2)cc1C (stereo unspecified) tested on HOP-92 NSCLC gave TGI: > 100 µM

With HOP-92 NSCLC as the test system, COc1cccc(C2c3cc4c(cc3OC(N3CCOCC3)C2C)OCO4)c1 (stereo unspecified) showed TGI of 85.3 µM

***
Param item: C=C1C[C@]23CC[C@@H]4C(CO)(CO)CC(=O)C[C@]4(C)[C@@H]2C(O)C[C@H]1C3 (stereo partly specified) ; param system: HOP-92 NSCLC; output TGI: > 100 µM

Where do the numbers come from? From PubChem BioAssay (NCI).
